Biological target: human CLDN18.2 (human)
Assay: cell-based or functional assay
ENDPOINT NAME: ADCC Maximum killing (%), PBMC effector cells, KATOIII target cells
Write the value in % as a bare number.

Q. I am curious: what ADCC Maximum killing (%), PBMC effector cells, KATOIII target cells value has been reported for 15F9 (antibody, human IgG1, kappa, V domains shown) VH: QVQLVQSGSELKKPGASVKVSCKASGYTFTNYGINWVRQAPGQGLEWMGWINPNTGETTYAEEFKGRFVFSLDTSVSTAYLQISSLKAEDTAVYFCARLYYGNRFDSWGQGTLVTVSS VL: DIVMTQSPDSLAVSLGERATINCKSSQSLLNSGNQRNYLTWYQQKPGQPPKLLIYWASTRESGVPDRFSGSGSGTDFTLTISSLQAEDVAVYYCQNAYYYPLTFGGGTKVEIKR ?
A. 10.6
